measured-quantity: melting point

> print(dat)
                                   compound  observed.measurement
1  NCC1(c2cccc(C(F)(F)F)c2)CCN(C(=O)CN2CCN(c3cnccn3)CC2)CC1 [Compound No. 4]         152 to 153 °C
2  NCC1(c2cccc(Cl)c2)CCN(C(=O)CN2CCN(c3cnccn3)CC2)CC1 [Compound No. 65]         138 to 139 °C
3  CNCC1(c2cccc(C(F)(F)F)c2)CCN(C(=O)CN2CCN(c3cnccn3)CC2)CC1 [Compound No. 57]         137 to 139 °C
4  CC(C)N(C)CC1(c2cccc(C(F)(F)F)c2)CCN(C(=O)CN2CCN(c3cnccn3)CC2)CC1.Cl.Cl.Cl         185 to 200 °C

Where do the numbers come from? From patent US7468368B2.
